assay: Highest effective permeability across hexadecane membrane (pH 4-8); format: ADME
measure: Log Pe

[in] For the compound shown here, C[C@]12CC[C@H]3[C@@H](CCC4=CC(=O)CC[C@@]43C)[C@@H]1CC[C@@H]2O [TESTOSTERONE] , give the reported Log Pe.
[out] -3.5 cm s-1

[in] Dear colleague, I am looking for the recorded Log Pe of the following compound: CN1C(C(=O)Nc2ccccn2)=C(O)c2ccccc2S1(=O)=O [PIROXICAM]
[out] -3.3 cm s-1

[in] Could you tell me which Log Pe is on file for CC(CCc1ccccc1)NCC(O)c1ccc(O)c(C(N)=O)c1 (stereo not given) [LABETALOL] ?
[out] -3.8 cm s-1

[in] Give the measured Log Pe of CC(C)(C)NCC(O)c1cc(O)cc(O)c1 (stereo not given) [TERBUTALINE] .
[out] -4.1 cm s-1

[in] Value lookup for Log Pe; key = Nc1nc2c(ncn2COCCO)c(=O)[nH]1 [ACYCLOVIR]
[out] -4.8 cm s-1

* * *

Kindly state Log Pe for each of the entries shown.
assay: Highest effective permeability across hexadecane membrane (pH 4-8); assay type: ADME
Only the number, expressed in cm s-1, is required.

[in] Find the recorded Log Pe belonging to CN(C)CCCN1c2ccccc2Sc2ccc(Cl)cc21 [CHLORPROMAZINE] and report it.
[out] -3.5

[in] Log Pe lookup needed for CC(=O)CC(c1ccccc1)c1c(O)c2ccccc2oc1=O (stereo not given) [WARFARIN] , thanks.
[out] -3.8

[in] If you can, please state the reported Log Pe value of CN(Cc1cnc2nc(N)nc(N)c2n1)c1ccc(C(=O)N[C@@H](CCC(=O)O)C(=O)O)cc1 [METHOTREXATE] .
[out] -4.7

[in] Which measured Log Pe value corresponds to NC(N)=Nc1nc(CSCCC(N)=NS(N)(=O)=O)cs1 [FAMOTIDINE] ?
[out] -4.3

[in] Entry CC(C)(C)NC[C@H](O)COc1nsnc1N1CCOCC1 [TIMOLOL] has what Log Pe?
[out] -4.2

[in] Quick one: Log Pe for NS(=O)(=O)c1cc2c(cc1Cl)NCNS2(=O)=O [HYDROCHLOROTHIAZIDE] ?
[out] -4.2

[in] Can you look up the measured Log Pe of CN/C(=C/[N+](=O)[O-])NCCSCc1ccc(CN(C)C)o1 [RANITIDINE] for me?
[out] -4.5

[in] Please give the measured Log Pe for this compound: NC(=O)N1c2ccccc2C=Cc2ccccc21 [CARBAMAZEPINE]
[out] -3.9

[in] Quick one: Log Pe for CN/C(=N/CCSCc1nc[nH]c1C)NC#N [CIMETIDINE] ?
[out] -4

[in] What value of Log Pe has been reported for the following compound? COCCc1ccc(OCC(O)CNC(C)C)cc1 (stereo not given) [METOPROLOL]
[out] -4.2

* * *

assay: Partition coefficient (logD6.8); format: physicochemical; settings: octanol/water, pH 6.8; read-out: logD
measure: logD

[in] Look up logD for this compound: `CC(=O)[C@H]1CC[C@H]2[C@@H]3CCC4=CC(=O)CC[C@]4(C)[C@H]3CC[C@]12C`
[out] 4.3

[in] State the recorded logD for this entry: NC(=O)N1c2ccccc2C=Cc2ccccc21 [CARBAMAZEPINE]
[out] 2.4

[in] Would you mind telling me what logD value was observed for CC(=O)CC(c1ccccc1)c1c(O)c2ccccc2oc1=O (centres undefined) ?
[out] 0.6

[in] Consider the compound shown here: `CCCCC(=O)N(Cc1ccc(-c2ccccc2-c2nnn[nH]2)cc1)[C@H](C(=O)O)C(C)C` What is its recorded logD?
[out] -1.6

[in] For `CN(C)CCCN1c2ccccc2Sc2ccc(Cl)cc21` , what is its reported logD?
[out] 2.9

[in] Field request: logD | item: `O=C1NC(=O)C(c2ccccc2)(c2ccccc2)N1`
[out] 2.2

[in] Would you mind telling me what logD value was observed for `CC(C)(C)NC[C@H](O)COc1nsnc1N1CCOCC1` ?
[out] -0.7

[in] For the compound shown here, Cc1ccccc1N1C(=O)c2cc(S(N)(=O)=O)c(Cl)cc2NC1C (centres undefined) , give the reported logD.
[out] 4.1

[in] Recorded logD for `Nc1nc2c(ncn2COCCO)c(=O)[nH]1` , please?
[out] -2

[in] Name the recorded logD for `O=C(O)c1cc(/N=N/c2ccc(S(=O)(=O)Nc3ccccn3)cc2)ccc1O` .
[out] -0.7

[in] // returns reported logD for input `CC(=O)N(O)CCCCCNC(=O)CCC(=O)N(O)CCCCCNC(=O)CCC(=O)N(O)CCCCCN`
[out] -3

[in] Given the entry `C[C@]12CC[C@H]3[C@@H](CCC4=CC(=O)CC[C@@]43C)[C@@H]1CC[C@@H]2O` , report its measured logD.
[out] 3.9

[in] Fill in the blank: the reported logD of `O=C(O)CN(CCN(CC(=O)O)Cc1ccccc1O)Cc1ccccc1O` is ____.
[out] -0.2

[in] Which logD reading was recorded for the compound `N=C(N)N/N=C/c1c(Cl)cccc1Cl` ?
[out] 0.9
